# credit: patent US6455587B1

Target: recombinant HIV-1 protease (Human immunodeficiency virus type 1 group M subtype B, UniProt P04585)
Construct: recombinant HIV-1 protease (final concentration 2.18 nM) purchased from Bachem Bioscience; purchased Bachem Bioscience
Assay: Enzymatic fluorometric (FRET) assay for determining the inhibition constant (Ki) against HIV protease
Type: biochemical
Settings: fluorometric FRET assay, 31° C., pH 4.7, recombinant HIV-1 protease 2.18 nM, substrate 10 μM; read-out: Ki
Text: An Enzymatic assay for determining the inhibition constant (Ki) of synthetic compounds targeting the HIV protease may be carried out as follows: This is a fluorometric assay based on the cleavage by protease of a substrate carrying a donor group (EDANS) and an acceptor group (DABCYL) on each side of the cleavage site, interacting together through fluorescence resonance energy transfer (FRET). […] Graphs are traced and the Ki determined using GraphPad Prism software v. […]
reported property: Ki (µM)

INSERT INTO measurements (compound, reported_property, inequality_operator, experimental_result) VALUES
  ('COc1cccc(CCC(=O)NCCCC[C@@H](C(=O)O)N(CC(C)C)S(=O)(=O)c2ccc(C)cc2)c1OC', 'Ki', '=', 0.015),
  ('COc1ccc(CCC(=O)NCCCC[C@@H](C(=O)O)N(CC(C)C)S(=O)(=O)c2ccc(N)cc2)c(OC)c1', 'Ki', '=', 0.0171),
  ('Cc1ccc(S(=O)(=O)N(CC(C)C)C(CCCCNC(CCc2ccccc2)=NC#N)C(=O)O)cc1 (racemic)', 'Ki', '=', 0.034),
  ('CC(C)CN([C@@H](CCCCNC(=O)COc1ccccc1)C(=O)O)S(=O)(=O)c1ccc(N)cc1', 'Ki', '=', 0.0082),
  ('CC(C)CN([C@@H](CCCCNC(=O)CCc1ccc(N)cc1)C(=O)O)S(=O)(=O)c1ccc(N)cc1', 'Ki', '>', 0.3),
  ('COc1ccc(C=CC(=O)NCCCC[C@@H](C(=O)O)N(CC(C)C)S(=O)(=O)c2ccc([N+](=O)[O-])cc2)c(OC)c1', 'Ki', '>', 0.075),
  ('COc1cc(CCC(=O)NCCCC[C@@H](C(=O)O)N(CC(C)C)S(=O)(=O)c2ccc(N)cc2)cc(OC)c1', 'Ki', '=', 0.0322);
